Quick reference: protein stability index of the listed items.
B1: PTPRD (parent)
chain: PVVSMDLDPQPITDEEEGLIWVVG

variants of: B1; test: protein stability index of a GFP-peptide fusion (GPS, HEK-293T) (PSI 1-6); higher = more stable; conditions: c terminus: a fixed tail appended;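 note: lentivirally expressed fusions sorted by FACS into six bins by GFP to DsRed ratio, PSI derived from sequencing read proportions per bin multiplied by bin number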
Keep the answer to the number alone.

mutant_id: V2L
protein stability index: 3.93
--
mutant_id: V2D
protein stability index: 3.95

Moving on to another variant below.
Prompt line: Fill in: protein stability index of P9Q is ___
Response line: 4.05
